- test-target: T1, human IL-1RAcP on 293T/17-FR cells (human, UniProt Q9NPH3 21-570)
- T1 sequence (looked up): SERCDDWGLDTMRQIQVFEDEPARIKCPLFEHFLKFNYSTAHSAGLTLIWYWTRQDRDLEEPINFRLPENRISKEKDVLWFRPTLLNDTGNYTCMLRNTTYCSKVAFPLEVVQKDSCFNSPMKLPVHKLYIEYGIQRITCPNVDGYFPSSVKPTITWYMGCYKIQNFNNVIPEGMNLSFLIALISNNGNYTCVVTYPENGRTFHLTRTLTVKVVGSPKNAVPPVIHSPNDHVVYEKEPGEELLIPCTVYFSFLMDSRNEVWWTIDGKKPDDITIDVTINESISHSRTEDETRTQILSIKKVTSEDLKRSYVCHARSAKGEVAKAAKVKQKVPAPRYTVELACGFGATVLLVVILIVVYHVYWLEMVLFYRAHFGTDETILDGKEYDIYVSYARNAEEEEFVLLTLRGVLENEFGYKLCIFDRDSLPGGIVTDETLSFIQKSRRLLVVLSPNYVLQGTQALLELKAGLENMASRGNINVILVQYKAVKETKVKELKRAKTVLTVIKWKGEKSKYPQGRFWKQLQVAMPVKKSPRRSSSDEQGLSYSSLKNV
- assay-name: cell-based or functional assay
recorded-endpoint: functional reporter gene assay (% inhibition), 5 µg/mL mAb

The recorded functional reporter gene assay (% inhibition), 5 µg/mL mAb for P013.S.02.B.E03 (antibody, V domains shown, rabbit monoclonal antibody; also called P013.A.00091.A10) VH: QSVEESGGRLVTPGTPLTLTCTVSGFSLSDYYMGWVRQAPGKGLEWIGTIDGGGSTYYASWAKGRFTVSKTSTTVDLTITSPTTEDTAIYFCARNYYAGLSDVFFGWWGQGTLVTVSS VL: DVVMTQTPASVEAAVGGTVTIMCQASETIYSGLAWYQQKPGQPPKLLIYYTSSLASGVPSRFKGSGSGTEFTLTISDLESADAATYYCQTYYDSEGRSYGYNSFGGGTEVVVK is 25%

The recorded functional reporter gene assay (% inhibition), 5 µg/mL mAb for P013.S.01.B.C05 (antibody, V domains shown, rabbit monoclonal antibody; also called P013.A.00045.E06) VH: QSVEESGGRLVTPGTPLTLTCTVSGFSLSNYAMSWVRQAPGKGLEYIGIIDSGGSAYYATWARGRFTISRTSTTVDLKMTSPTTEDTATYFCARGGPAYSTNTHYTLDLWGPGTLVTVSS VL: AFEMTQTPSSVSEPVGGTVTIKCQASQSIYNYLSWYQQKPGQPPKLLIYDASELASGVPSRFKGSGSGTEFTLTISGVQSDDAATYYCQQGATTYNIENVFGGGTEVVVK is 95%

The recorded functional reporter gene assay (% inhibition), 5 µg/mL mAb for P013.S.01.B.E03 (antibody, V domains shown, rabbit monoclonal antibody; also called P013.A.00015.E03) VH: QSLEESGGRLVTPGTPLTLTCTASGFSITNYHISWVRQAPGKGLEWIGYIYAGRDFTYYANWAEGRFTISKTSTTVDLQVTVPTTEDTATYFCARDGGSPNWTLDLWGQGTLVTVSS VL: DVVMTQTPASVSEPVGGTVTINCQASESISDYLSWYQQKPGQPPKLLIYRASTLESGVSSRFKGSGSGTQFTLTISDLESADAATYYCQSNYYDSRGNAFGGGTEVVVK is 68%
